molecular target: CCK-B receptor (Mus musculus); construct: crude membrane specimen from mouse cerebral cortex; from tissue; host or cells: cerebral cortex of male ddY mice, crude membranes; experiment: CCK-B receptor antagonism, displacement of [3H]CCK-8, cerebral cortex crude membrane; type: binding, mouse (male ddY); conditions: mouse cerebral cortex membrane, [3H]CCK-8 1 nM, 90 min, 25 °C; read-out: Receptor CCK-B (IC50)
Readout Name: IC50 (nM)
Quick reminder: number only, in nM, skip the unit.

Request: Please look at O=C(Nc1cccc(-c2nnn[nH]2)c1)NC1C(=O)N(CC(=O)C2CC2)c2ccccc2N(CC(=O)C2CC2)C1=O [Compound 17-iv] and tell me its recorded IC50 on CCK-B receptor (Mus musculus).
Response: 8

Request: Please look at O=C(O)Cc1cccc(NC(=O)NC2C(=O)N(CC(=O)C3CC3)c3ccccc3N(CC(=O)C3CC3)C2=O)c1 [Compound 17-xiii] and tell me its recorded IC50 on CCK-B receptor (Mus musculus).
Response: 7

Request: Please look at O=C(O)CCCNC(=O)OCc1cccc(NC(=O)NC2C(=O)N(CC3CC3)c3ccccc3N(CC3CC3)C2=O)c1 [Compound 11o] and tell me its recorded IC50 on CCK-B receptor (Mus musculus).
Response: 36

###

Target: CCK-B receptor (Mus musculus)
Construct: crude membrane specimen from mouse cerebral cortex; from tissue; host or cells: cerebral cortex of male ddY mice, crude membranes
Sequence (P56481 1-453): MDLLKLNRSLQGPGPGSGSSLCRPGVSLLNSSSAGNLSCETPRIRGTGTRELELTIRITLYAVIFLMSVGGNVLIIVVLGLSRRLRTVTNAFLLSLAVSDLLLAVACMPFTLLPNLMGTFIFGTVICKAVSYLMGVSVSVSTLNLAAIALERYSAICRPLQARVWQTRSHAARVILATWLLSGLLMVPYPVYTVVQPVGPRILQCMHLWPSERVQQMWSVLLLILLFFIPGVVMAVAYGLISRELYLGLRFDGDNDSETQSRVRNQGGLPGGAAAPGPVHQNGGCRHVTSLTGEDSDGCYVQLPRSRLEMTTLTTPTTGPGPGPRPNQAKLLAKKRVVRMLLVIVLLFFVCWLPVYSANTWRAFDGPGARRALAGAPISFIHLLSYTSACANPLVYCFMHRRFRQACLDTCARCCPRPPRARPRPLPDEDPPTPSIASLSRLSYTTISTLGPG
Assay: CCK-B receptor antagonism, displacement of [3H]CCK-8, cerebral cortex crude membrane
Format: binding, mouse (male ddY)
Conditions: mouse cerebral cortex membrane, [3H]CCK-8 1 nM, 90 min, 25 °C; read-out: Receptor CCK-B (IC50)
For each of the molecules below, state its log10 of IC50.
Field: value | Transform: log10 | Quantity: IC50 | Unit: nM

Request: Supply reported log10 of IC50 belonging to this molecule: COC(=O)Cc1cccc(NC(=O)NC2C(=O)N(CC(=O)C3CC3)c3ccccc3N(CC(=O)C3CC3)C2=O)c1 [Compound 17-xii]
Response: 1.68

Request: Supply reported log10 of IC50 belonging to this molecule: O=C(O)CSc1cccc(NC(=O)NC2C(=O)N(CC(=O)C3CC3)c3ccccc3N(CC(=O)C3CC3)C2=O)c1 [Compound 17-ix]
Response: 0.30

Request: Supply reported log10 of IC50 belonging to this molecule: O=C(Nc1cccc(-c2nc(=O)o[nH]2)c1)NC1C(=O)N(CC(=O)C2CC2)c2ccccc2N(CC(=O)C2CC2)C1=O [Compound 17-x]
Response: 0.48

Request: Supply reported log10 of IC50 belonging to this molecule: Cc1cccc(NC(=O)NC2C(=O)N(CC(=O)c3ccccc3C)c3ccccc3N(CC(=O)c3ccccc3C)C2=O)c1 [Compound 8d]
Response: 1.04

Request: Supply reported log10 of IC50 belonging to this molecule: O=C(Nc1cccc(SCc2nnn[nH]2)c1)NC1C(=O)N(CC(=O)C2CC2)c2ccccc2N(CC(=O)C2CC2)C1=O [Compound 17-xvii]
Response: 0.00

Request: Supply reported log10 of IC50 belonging to this molecule: CCOC(=O)c1cccc(NC(=O)NC2C(=O)N(CC(=O)N3CCCC3)c3ccccc3N(CC(=O)N3CCCC3)C2=O)c1 [Compound 18-i]
Response: 2.64

Request: Supply reported log10 of IC50 belonging to this molecule: Cc1cccc(NC(=O)NC2C(=O)N(CC(=O)OC(C)(C)C)c3ccccc3N(CC(=O)OC(C)(C)C)C2=O)c1 [Compound 8s]
Response: 0.30

###

Target: CCK-A receptor (Mus musculus)
Construct: crude membrane specimen from mouse pancreas; from tissue; host or cells: pancreas of male ddY mice, crude membranes
Sequence (O08786 1-436): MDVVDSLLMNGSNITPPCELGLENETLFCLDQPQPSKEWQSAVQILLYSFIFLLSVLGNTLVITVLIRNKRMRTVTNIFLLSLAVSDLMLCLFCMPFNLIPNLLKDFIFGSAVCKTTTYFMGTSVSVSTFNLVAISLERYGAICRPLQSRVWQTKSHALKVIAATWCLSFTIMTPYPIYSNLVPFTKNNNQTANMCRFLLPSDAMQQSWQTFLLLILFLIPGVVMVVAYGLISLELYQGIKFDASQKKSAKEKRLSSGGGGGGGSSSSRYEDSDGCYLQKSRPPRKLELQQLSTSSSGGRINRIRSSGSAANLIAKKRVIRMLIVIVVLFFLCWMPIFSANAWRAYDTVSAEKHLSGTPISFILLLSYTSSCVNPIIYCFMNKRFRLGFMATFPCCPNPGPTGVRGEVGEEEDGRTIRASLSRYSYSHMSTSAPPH
Test: CCK-A receptor antagonism, displacement of [3H]CCK-8, pancreas crude membrane
Type: binding, mouse (male ddY)
Conditions: mouse pancreas membrane, [3H]CCK-8 1 nM, 90 min, 25 °C; read-out: Receptor CCK-A (IC50)
Just so you know, the groups by IC50 go like this: I: < 0.4 µM; II: ≥ 0.4 µM and < 2 µM; III: ≥ 2 µM

Request: Lab log: COC(=O)CCCNC(=O)OCc1cccc(NC(=O)NC2C(=O)N(CC(=O)N3CCCC3)c3ccccc3N(CC(=O)N3CCCC3)C2=O)c1 — assign IC50 category
Response: III

Request: Lab log: O=C(Nc1cccc(OCc2nnn[nH]2)c1)NC1C(=O)N(CC(=O)C2CC2)c2ccccc2N(CC(=O)C2CC2)C1=O — assign IC50 category
Response: II

Request: Lab log: O=C(Nc1cccc(C(=O)O)c1)NC1C(=O)N(CC(=O)C2CC2)c2ccccc2N(CC(=O)C2CC2)C1=O — assign IC50 category
Response: III

Request: Lab log: O=C(Nc1cccc(-c2nnn[nH]2)c1)NC1C(=O)N(CC2CC2)c2ccccc2N(CC2CC2)C1=O — assign IC50 category
Response: III

Request: Lab log: CC(C)(C)OC(=O)CN1C(=O)C(NC(=O)Nc2cccc(COC(=O)NCCCC(=O)OCc3ccccc3)c2)C(=O)N(CC(=O)OC(C)(C)C)c2ccccc21 [Compound 10s] — assign IC50 category
Response: I

Request: Lab log: COC(=O)CCCNC(=O)OCc1cccc(NC(=O)NC2C(=O)N(CC(=O)C3CCCC3)c3ccccc3N(CC(=O)C3CCCC3)C2=O)c1 — assign IC50 category
Response: I

Request: Lab log: Cc1cccc(NC(=O)NC2C(=O)N(CC(=O)OC(C)(C)C)c3ccccc3N(CC(=O)OC(C)(C)C)C2=O)c1 — assign IC50 category
Response: I

Request: Lab log: Cc1cccc(NC(=O)NC2C(=O)N(CC(=O)c3ccccc3C)c3ccccc3N(CC(=O)c3ccccc3C)C2=O)c1 — assign IC50 category
Response: I

Request: Lab log: COC(=O)CCCNC(=O)OCc1cccc(NC(=O)NC2C(=O)N(CC(=O)c3cccs3)c3ccccc3N(CC(=O)c3cccs3)C2=O)c1 — assign IC50 category
Response: II

Request: Lab log: O=C(O)COc1cccc(NC(=O)NC2C(=O)N(CC(=O)C3CC3)c3ccccc3N(CC(=O)C3CC3)C2=O)c1 — assign IC50 category
Response: III

Request: Lab log: COC(=O)Cc1cccc(NC(=O)NC2C(=O)N(CC(=O)C3CC3)c3ccccc3N(CC(=O)C3CC3)C2=O)c1 — assign IC50 category
Response: III

Request: Lab log: O=C(Nc1cccc(SCc2nnn[nH]2)c1)NC1C(=O)N(CC(=O)C2CC2)c2ccccc2N(CC(=O)C2CC2)C1=O — assign IC50 category
Response: II

Request: Lab log: COC(=O)CCCNC(=O)OCc1cccc(NC(=O)NC2C(=O)N(CC(=O)C3CC3)c3ccccc3N(CC(=O)C3CC3)C2=O)c1 — assign IC50 category
Response: II

###

target: CCK-A receptor (Mus musculus, UniProt O08786); construct: crude membrane specimen from mouse pancreas; from tissue; host or cells: pancreas of male ddY mice, crude membranes; experiment: CCK-A receptor antagonism, displacement of [3H]CCK-8, pancreas crude membrane; type: binding, mouse (male ddY)
Readout Name: pIC50
Units for pIC50: none; it is -log10 of a concentration expressed in mol/L.

Request: Please look at COC(=O)CCCNC(=O)OCc1cccc(NC(=O)NC2C(=O)N(CC(=O)N3CCSC3)c3ccccc3N(CC(=O)N3CCSC3)C2=O)c1 and tell me its recorded pIC50 on CCK-A receptor (Mus musculus, UniProt O08786).
Response: 6.44
